Taken from patent US20250313563A1.

Target: UniProtKB P49840
Assay: GSK3α TR-FRET kinase assay
Assay type: biochemical
Conditions: 1 nM GSK3α, 4 μM ATP, 30 minute preincubation, Table 16; read-out: GSK3-A TR-FRET BIOCHEMICAL (TR-FRET); IC50
measurement_kind: IC50

| compound | endpoint_value |
| --- | --- |
| CC[C@]1(c2cccc(N(C)c3cncnc3)c2)C2=C(CC(C)(C)NC2=O)Nc2n[nH]cc21 [Compound 915401] | 100 to 1000 nM |
| CC1(C)CC(=O)C2=C(C1)Nc1n[nH]cc1C21CN(C2CCCCC2)C1 [Compound 929446] | 1000 to 5000 nM |
| CCC1(c2cccc(-c3cnn(C)c3)c2)C2=C(CC(C)(C)C2=O)Nc2n[nH]cc21 (stereo not shown) [Compound 950826] | > 5000 nM |
| CC[C@@]1(c2cccc(-c3cc(C)ncc3F)c2)C2=C(CC(C)(C)NC2=O)Nc2n[nH]c(C(F)(F)F)c21 [Compound 949650] | ≤ 100 nM |
| CCC1(c2cccc(N(C)c3ncccn3)c2)C2=C(CC(C)(C)C2=O)Nc2n[nH]cc21 (stereo not shown) [Compound 952205] | 1000 to 5000 nM |
| CCn1cc(N2CCC3=C(C2=O)[C@](CC)(c2cccc(C(F)(F)F)c2)c2c[nH]nc2N3)cn1 [Compound 949867] | ≤ 100 nM |
| CCC1(c2cccc(-c3ccnc(N(C)C)c3)c2)C2=C(CC(C)(C)CC2=O)Nc2n[nH]c(C)c21 (stereo not shown) [Compound 883990] | ≤ 100 nM |

* * *

Biological target: GSK3b (GST-full length GSK3b) (Homo sapiens (Human), UniProt P49841)
Sequence (P49841 whole entry): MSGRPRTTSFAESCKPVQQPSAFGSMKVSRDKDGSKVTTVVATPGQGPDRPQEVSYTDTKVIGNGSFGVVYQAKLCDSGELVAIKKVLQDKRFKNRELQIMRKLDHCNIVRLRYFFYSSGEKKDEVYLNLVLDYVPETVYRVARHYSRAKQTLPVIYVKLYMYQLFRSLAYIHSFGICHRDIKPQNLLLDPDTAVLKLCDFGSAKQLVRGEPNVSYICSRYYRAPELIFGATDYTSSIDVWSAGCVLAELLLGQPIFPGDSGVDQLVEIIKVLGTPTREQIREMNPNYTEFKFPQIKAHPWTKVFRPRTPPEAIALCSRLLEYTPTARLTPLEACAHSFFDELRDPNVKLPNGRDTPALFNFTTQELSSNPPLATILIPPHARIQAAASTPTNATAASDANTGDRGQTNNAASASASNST
Assay: GSK3b TR-FRET kinase assay
Type: biochemical
Details: 1 nM GSK3b, 2 μM ATP, 30 minute preincubation, Table 16; read-out: GSK3-B TR-FRET BIOCHEMICAL (TR-FRET); IC50
pIC50: −log10 of the molar value.
measurement_kind: pIC50

| compound | measurement_kind | endpoint_value |
| --- | --- | --- |
| CCC1(c2cccc(-c3ccnn3C)c2)C2=C(CC(C)(C)CC2=O)Nc2n[nH]c(C)c21 (stereo not shown) | pIC50 | ≥ 7.00 |
| CCC1(c2cccc(S(=O)(=O)Cc3ccccc3)c2)C2=C(CC(C)(C)CC2=O)Nc2n[nH]cc21 (stereo not shown) | pIC50 | ≥ 7.00 |
| CC[C@@]1(c2cccc(-c3ccncc3C(F)(F)F)c2)C2=C(CC(C)(C)C2=O)Nc2n[nH]cc21 | pIC50 | ≥ 7.00 |
| CC[C@@]1(c2cccc(-c3cn(C)nc3C)c2)C2=C(CC(C)(C)NC2=O)Nc2n[nH]c(F)c21 | pIC50 | ≥ 7.00 |
| CCC1(c2cccc(-c3ccncc3F)c2)C2=C(CC(C)(C)CC2=O)Nc2n[nH]c(C)c21 (stereo not shown) [Compound 913017] | pIC50 | 6.00 to 7.00 |
| CC[C@]1(c2cccc(N3C[C@H](C)[C@@H](C)C3)c2)C2=C(CC(C)(C)CC2=O)Nc2n[nH]cc21 | pIC50 | < 5.30 |
| CCC1(c2cccc(-c3cnn4cccnc34)c2)C2=C(CC(C)(C)NC2=O)Nc2n[nH]cc21 (stereo not shown) | pIC50 | < 5.30 |

* * *

Measured IC50 accompanies every entry in the list below.
Target: GSK3b (GST-full length GSK3b) (Homo sapiens (Human), UniProt P49841)
Experiment: GSK3b TR-FRET kinase assay
Format: biochemical
Details: 1 nM GSK3b, 2 μM ATP, 30 minute preincubation, Table 16; read-out: GSK3-B TR-FRET BIOCHEMICAL (TR-FRET); IC50

| compound | IC50 |
| --- | --- |
| C[C@H]1COCC[C@@]12C1=C(CC(C)(C)CC1=O)Nc1n[nH]cc12 | > 5000 nM |
| CCC1(c2cccc(-c3ccncc3OC)c2)C2=C(CC(C)(C)CC2=O)Nc2n[nH]cc21 (stereo not drawn) | ≤ 100 nM |
| CCC1(c2cccc(-c3cn(C)nc3C(F)(F)F)c2)C2=C(CC(C)(C)NC2=O)Nc2n[nH]cc21 (stereo not drawn) | 100 to 1000 nM |
| CCC1(c2cccc(NS(C)(=O)=O)c2)C2=C(CC(C)(C)CC2=O)Nc2n[nH]cc21 (stereo not drawn) [Compound 927341] | 1000 to 5000 nM |
| CC1(C)CC(=O)C2=C(C1)Nc1n[nH]cc1C21COCCOC1 | > 5000 nM |
| CCC1(c2cccc(N(C)c3ncccn3)c2)C2=C(CC(C)(C)NC2=O)Nc2n[nH]c(C(F)F)c21 (stereo not drawn) | ≤ 100 nM |
| CCC1(c2cccc(S(=O)(=O)CC3CC3)c2)C2=C(CC(C)(C)CC2=O)Nc2n[nH]cc21 (stereo not drawn) | ≤ 100 nM |
| CC[C@@]1(c2cccc(C(F)(F)F)c2)C2=C(CCN(CCOC)C2=O)Nc2n[nH]cc21 | 100 to 1000 nM |
| CO[C@H]1C[C@@]2(C1)C1=C(CC(C)(C)CC1=O)Nc1n[nH]cc12 | > 5000 nM |
| CC1(C)CC(=O)C2=C(C1)Nc1n[nH]cc1C2(C)C | > 1670 nM |
| CCC1(c2cccc(-c3ccnn3C(C)C)c2)C2=C(CC(C)(C)CC2=O)Nc2n[nH]cc21 (stereo not drawn) | ≤ 100 nM |
| CCC1(c2cccc(C(F)(F)F)c2)C2=C(CCN(c3cc(C)n(C)n3)C2=O)Nc2n[nH]cc21 (stereo not drawn) | 1000 to 5000 nM |
| CC[C@@]1(c2cccc(N(C)c3ncccn3)c2)C2=C(CC(C)(C)NC2=O)Nc2n[nH]c(F)c21 | ≤ 100 nM |
| CCC1(c2cccc(OC)c2)C2=C(CC(C)(C)CC2=O)Nc2n[nH]c(C(=O)OC)c21 (stereo not drawn) | 100 to 1000 nM |
| CCN(C(C)=O)c1cccc([C@]2(CC)C3=C(CC(C)(C)CC3=O)Nc3n[nH]cc32)c1 | ≤ 100 nM |

* * *

Target: GSK3α (GST-full length GSK3α) (Homo sapiens (Human))
Sequence (P49840 whole entry): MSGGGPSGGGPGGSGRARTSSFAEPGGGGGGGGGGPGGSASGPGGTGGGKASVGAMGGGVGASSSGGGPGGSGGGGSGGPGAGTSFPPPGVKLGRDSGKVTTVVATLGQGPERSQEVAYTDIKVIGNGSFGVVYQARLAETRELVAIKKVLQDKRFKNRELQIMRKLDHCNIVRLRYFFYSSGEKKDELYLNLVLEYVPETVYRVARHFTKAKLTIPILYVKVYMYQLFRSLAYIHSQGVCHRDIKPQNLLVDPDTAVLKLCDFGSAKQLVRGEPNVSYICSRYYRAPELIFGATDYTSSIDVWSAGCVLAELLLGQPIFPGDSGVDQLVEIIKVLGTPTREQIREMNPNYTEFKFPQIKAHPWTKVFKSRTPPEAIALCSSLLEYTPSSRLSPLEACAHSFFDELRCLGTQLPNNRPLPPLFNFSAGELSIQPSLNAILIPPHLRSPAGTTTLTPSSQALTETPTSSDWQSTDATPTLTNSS
Assay: GSK3α TR-FRET kinase assay
Type: biochemical
Details: 1 nM GSK3α, 4 μM ATP, 30 minute preincubation, Table 16; read-out: GSK3-A TR-FRET BIOCHEMICAL (TR-FRET)
Measured IC50 accompanies every entry in the list below.
measurement_kind: IC50

| molecule | measurement_kind | endpoint_value |
| --- | --- | --- |
| CCC1(c2cccc(-c3c(C)cnn3C)c2)C2=C(CC(C)(C)CC2=O)Nc2n[nH]cc21 (stereo not shown) | IC50 | ≤ 100 nM |
| CC1(C)CC(=O)C2=C(Nc3n[nH]cc3[C@]23CC[C@@H](C(F)(F)F)CC3)[C@H]1F | IC50 | ≤ 100 nM |
| CC1(C)CC(=O)C2=C(C1)Nc1n[nH]cc1C21CCN(S(=O)(=O)c2cnn3c2OCCC3)CC1 | IC50 | ≤ 100 nM |
| Cc1nn(C)c(C)c1S(=O)(=O)N1CCC2(CC1)C1=C(CC(C)(C)CC1=O)Nc1n[nH]cc12 | IC50 | 100 to 1000 nM |

* * *

Test: Microsomal stability (MIC), mouse
Type: in vitro ADME, mouse (CD-1)
Details: mouse liver microsomes
measurement_kind: Microsome stability (mouse); in vitro T1/2 (min)

| compound | relation_operator | endpoint_value |
| --- | --- | --- |
| CN1CC2(C3=C(CC(C)(C)CC3=O)Nc3n[nH]c(CC(C)(C)C)c32)c2ccccc21 (centres unmarked) [Compound 125978] | = | 0.6 |
| CC1(C)CC(=O)C2=C(C1)Nc1n[nH]c(C3CC(F)(F)C3)c1C21COc2ccccc21 (centres unmarked) [Compound 127430] | = | 74.5 |
| CN1CC2(C3=C(CC(C)(C)CC3=O)Nc3n[nH]c(C4CC(F)(F)C4)c32)c2ccccc21 (centres unmarked) [Compound 119048] | = | 0.5 |
| CC(C)(C)Cc1[nH]nc2c1C1(CN(S(=O)(=O)CC3CC3)C1)C1=C(CC3(CCC3)CC1=O)N2 [Compound 107829] | = | 2.084 |
| CC(C)(C)Cc1[nH]nc2c1C(C)(c1cccc(S(=O)(=O)CC3CC3)c1)C1=C(CC(C)(C)NC1=O)N2 (centres unmarked) [Compound 108005] | = | 0.69 |
| CC(C)(C)Cc1[nH]nc2c1C(C)(c1cc(S(C)(=O)=O)ccc1F)C1=C(CC(C)(C)CC1=O)N2 (centres unmarked) [Compound 125976] | = | 36 |
| CC(C)(C)Cc1[nH]nc2c1C(C)(c1cccc(S(C)(=O)=O)c1)C1=C(CC(C)(C)CC1=O)N2 (centres unmarked) [Compound 114687] | = | 6.4 |
| Cc1ccc(S(C)(=O)=O)cc1C1(C)C2=C(CC(C)(C)CC2=O)Nc2n[nH]c(CC(C)(C)C)c21 (centres unmarked) [Compound 126397] | > | 145 |
